Numbers sourced from ChEMBL document CHEMBL5154650.

assayOverview: Resistant index, ratio IC50 for KB-V1 cells over IC50 for KB cells
Assay type: functional
measurementLabel: Ratio IC50
Hey, just send me the number, nothing else.

Inquiry: Give Ratio IC50 for the following compound: COc1cc(C#N)cc(-c2ccc(C(=O)c3ccccc3)c(N)c2)c1.Cl
Reply text: 1

Inquiry: Give Ratio IC50 for the following compound: COc1cc(OC)cc(-c2ccc(C(=O)c3ccccc3)cc2)c1
Reply text: 1

Inquiry: Give Ratio IC50 for the following compound: COc1cc2c(c(OC)c1OC)-c1ccc(OC)c(=O)cc1[C@@H](NC(C)=O)CC2
Reply text: 73.5

Inquiry: Give Ratio IC50 for the following compound: COc1cc(C#N)cc(-c2ccc(C(=O)c3ccccc3)cc2)c1
Reply text: 1

Inquiry: Give Ratio IC50 for the following compound: CC[C@]1(O)C[C@H]2CN(CCc3c([nH]c4ccccc34)[C@@](C(=O)OC)(c3cc4c(cc3OC)N(C=O)[C@H]3[C@@](O)(C(=O)OC)[C@H](OC(C)=O)[C@]5(CC)C=CCN6CC[C@]43[C@@H]65)C2)C1
Reply text: 1282.2

----------
Test system: K562/Adr
assayOverview: Antiproliferative activity against human K562/Adr cells measured after 72 hrs by SRB assay
Type: functional, cell-based
Give pIC50 for every item shown.
Please keep in mind that pIC50 is minus log10 of the molar concentration; only the number is needed.

Inquiry: Give pIC50 for the following molecule: COc1cc(C#N)cc(-c2ccc(C(=O)c3ccccc3)cc2)c1
Reply text: 6.65

Inquiry: Give pIC50 for the following molecule: COc1cc(OC)cc(-c2ccc(C(=O)c3ccccc3)cc2)c1
Reply text: 6.52

Inquiry: Give pIC50 for the following molecule: COc1cccc2c1C(=O)c1c(O)c3c(c(O)c1C2=O)C[C@@](O)(C(=O)CO)C[C@@H]3O[C@H]1C[C@H](N)[C@H](O)[C@H](C)O1.Cl [DOXORUBICIN HYDROCHLORIDE]
Reply text: 4.51

Inquiry: Give pIC50 for the following molecule: COc1cc2c(c(OC)c1OC)-c1ccc(OC)c(=O)cc1[C@@H](NC(C)=O)CC2
Reply text: 5.18

Inquiry: Give pIC50 for the following molecule: COc1cc(C#N)cc(-c2ccc(C(=O)c3ccccc3)c(N)c2)c1.Cl
Reply text: 8.15

----------
System: THP-1
assayOverview: Antiproliferative activity against human THP-1 cells measured after 72 hrs by SRB assay
Type: functional, cell-based
experimentalSetup: THP-1, 72 h
measurementLabel: IC50 (nM)
Answer with a number only, understood to be in nM.

Inquiry: Report its IC50 with THP-1 as the test system: COc1cc(C#N)cc(-c2ccc(C(=O)c3ccccc3)c(N)c2)c1.Cl
Reply text: 7.4

----------
Test system: HeLa
assayOverview: Antiproliferative activity against human HeLa cells measured after 72 hrs by SRB assay
Type: functional, cell-based
measurementLabel: pIC50
Please keep in mind that pIC50 is minus log10 of the molar concentration; only the number is needed.

Inquiry: Give pIC50 for the following molecule: COc1cc(C#N)cc(-c2ccc(C(=O)c3ccccc3)c(N)c2)c1.Cl
Reply text: 8.38

----------
Give pIC50 for every item shown.
Tested on: KB
assayOverview: Antiproliferative activity against human KB cells measured after 72 hrs by SRB assay
Assay type: functional, cell-based
Please keep in mind that pIC50 is minus log10 of the molar concentration; only the number is needed.

Inquiry: Give pIC50 for the following compound: COc1cc(C#N)cc(-c2ccc(C(=O)c3ccccc3)cc2)c1
Reply text: 7.43

Inquiry: Give pIC50 for the following compound: COc1cc(OC)cc(-c2ccc(C(=O)c3ccccc3)cc2)c1
Reply text: 7.28

Inquiry: Give pIC50 for the following compound: COc1cc2c(c(OC)c1OC)-c1ccc(OC)c(=O)cc1[C@@H](NC(C)=O)CC2
Reply text: 7.74

Inquiry: Give pIC50 for the following compound: CC[C@]1(O)C[C@H]2CN(CCc3c([nH]c4ccccc34)[C@@](C(=O)OC)(c3cc4c(cc3OC)N(C=O)[C@H]3[C@@](O)(C(=O)OC)[C@H](OC(C)=O)[C@]5(CC)C=CCN6CC[C@]43[C@@H]65)C2)C1
Reply text: 8.17

Inquiry: Give pIC50 for the following compound: COc1cc(C#N)cc(-c2ccc(C(=O)c3ccccc3)c(N)c2)c1.Cl
Reply text: 8.20
